Value source: PubChem BioAssay AID1159580

Measurement Notes: chemical genetic growth profiling, strain panel (AID 1159580);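 note: tested at 20 µM; growth read once vehicle control cultures reached saturation at 30 °C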
Test Conditions: S. cerevisiae deletion strains, growth OD, locus YHR013C, strain ard1, stronger effect = lower value
Among all 5,500 compounds or so, about 2,000 (36%) were called active. Another 18% or so got no clear call; they are omitted. Some of the results follow.
Just a reminder that ties go to Criterion not met: only normalized growth strictly below 1 counts as Criterion met.

# Molecule, Group Label
measured = [
    ("Cc1ccc(S(=O)(=O)NC(=O)NN2CCCCCC2)cc1", "Criterion met"),
    ("O=S(=O)(O)c1cc(N=C=S)ccc1/C=C/c1ccc(N=C=S)cc1S(=O)(=O)O", "Criterion not met"),
    ("O=C(c1ccc(OCCN2CCCCC2)cc1)c1c(-c2ccc(O)cc2)sc2cc(O)ccc12", "Criterion met"),
    ("Clc1ccc(C(c2ccc(Cl)cc2)C(Cl)(Cl)Cl)cc1", "Criterion not met"),
    ("C[C@]12CCC(=O)C=C1C=CC1C2CC[C@@]2(C)C1CC[C@@]21CCC(=O)O1 (stereo partly specified)", "Criterion met"),
    ("O=C(O[C@@H]1Cc2c(O)cc(O)cc2O[C@@H]1c1ccc(O)c(O)c1)c1cc(O)c(O)c(O)c1", "Criterion met"),
    ("COC(=O)C[C@H]1C2(C)CC34OC5(C)O[C@@]6([C@H](OC)C(OC(=O)C(C)C)[C@]7(C)C(/C(=C(/OC)C(C)C)C(=O)O[C@H]7c7ccoc7)[C@@]6(O5)[C@H](OC)[C@@]3(OC)C2OC(C)=O)[C@]14C (stereo partly specified)", "Criterion met"),
]

---

Measurement Notes: chemical genetic growth profiling, strain panel (AID 1159580);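 note: tested at 20 µM; growth read once vehicle control cultures reached saturation at 30 °C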
Test Conditions: S. cerevisiae deletion strains, growth OD, locus YEL003W, strain gim4
About 2,000 (36%) of roughly 5,500 compounds were called active. Inconclusive results (about 18%) are left out. No stated cut-off is given here; in the data, active means normalized growth mostly below about 0.91 (no sharp cut-off); inconclusive means no clear call, values can overlap the other calls; inactive means mostly above about 0.92. This is one part of the list.
Labels: active, inactive

# Molecule, Group Label
records = [
    ("c1ccc2c(c1)CCCC2C1=NCCN1 (configuration not stated)", "inactive"),
    ("CN(C)CCCC1(c2ccc(F)cc2)OCc2cc(C#N)ccc21 (configuration not stated)", "inactive"),
    ("O=S(=O)(O)c1cc(N=C=S)ccc1/C=C/c1ccc(N=C=S)cc1S(=O)(=O)O", "inactive"),
    ("CCCCCCCCCCCCCc1ccco1", "inactive"),
    ("C#CCCCCCCCCCCCc1ccco1", "inactive"),
    ("CC1(O)CC2C(CC1O)C2(C)C (configuration not stated)", "inactive"),
    ("CCC(C)C(=O)O[C@@H]1C[C@@]2(C)[C@H](c3ccoc3)OC(=O)CC23OC2(C)O[C@]14[C@]1(C)[C@@H](CC(=O)OC)C5(C)CC1(O)[C@](O)(C5OC(=O)C1(C)OC1C)[C@@H](OC(C)=O)[C@]34O2 (some centres not stated)", "inactive"),
    ("COC(=O)C1=COC(OC2OC(CO)C(O)C(O)C2O)C2C(C)CC(=O)C12 (configuration not stated)", "inactive"),
    ("CN(C)CCN(Cc1ccccc1)c1ccccn1", "inactive"),
    ("Cc1ccc(S(=O)(=O)NC(=O)NN2CCCCCC2)cc1", "inactive"),
    ("NS(=O)(=O)c1cc2c(cc1Cl)NC=NS2(=O)=O", "inactive"),
    ("COC(=O)/C=C/C(C)=C/C=C/C(C)=C/C=C/C=C(C)/C=C/C=C(C)/C=C/C(=O)O", "inactive"),
    ("COc1ccc2c(c1)OC/C(=C\\c1ccc(OC)c(O)c1)C2=O", "active"),
    ("COc1ccc(-c2coc3cc(O)ccc3c2=O)c(OC)c1O", "inactive"),
    ("C#CCN(C)Cc1ccccc1", "inactive"),
    ("OCC(O)CN1CCN(c2ccccc2)CC1 (configuration not stated)", "inactive"),
    ("Oc1ccc2c(c1)O[C@H](c1ccc(O)c(O)c1)[C@@H](O)C2", "inactive"),
    ("CC[C@@]1(O)C[C@H](O[C@H]2C[C@H](N(C)C)[C@H](O)[C@H](C)O2)c2c(cc3c(c2O)C(=O)c2c(O)ccc(O)c2C3=O)[C@H]1C(=O)OC", "inactive"),
    ("CCCCNC(=O)NS(=O)(=O)c1ccc(C)cc1", "inactive"),
    ("Oc1cc(O)c2c(c1)O[C@H](c1ccc(O)c(O)c1)[C@@H](O)C2", "inactive"),
    ("COc1ccc([C@H]2Oc3c(I)c(OC)cc(OC)c3C[C@@H]2O)cc1OC", "inactive"),
    ("C[C@@H]1CC(Cl)CC[C@H]1C(=O)OC(C)(C)C (some centres not stated)", "inactive"),
    ("Oc1cc(O)c2c(c1)O[C@H](c1cc(O)c(O)c(O)c1)[C@H](O)C2", "inactive"),
    ("CCN1CCCC(OC(=O)C(c2ccccc2)c2ccccc2)C1 (configuration not stated)", "inactive"),
    ("C=CCCCCCCCCCCCc1ccco1", "active"),
    ("O=c1c(-c2ccc(O)cc2)coc2cc(O)ccc12", "inactive"),
    ("COc1ccc(-c2coc3cc(O)ccc3c2=O)c(OC)c1", "inactive"),
    ("CO/N=C1/CN(c2nc3c(cc2F)c(=O)c(C(=O)O)cn3C2CC2)CC1CN (configuration not stated)", "inactive"),
    ("CC[C@@]1(O)C[C@H](O[C@H]2C[C@H](N(C)C)[C@H](O)[C@H](C)O2)c2c(cc3c(c2O)C(=O)c2c(O)cccc2C3=O)[C@H]1C(=O)OC", "inactive"),
    ("Cc1ccc(C(=O)Nc2ccc(S(=O)(=O)O)c3cc(S(=O)(=O)O)cc(S(=O)(=O)O)c23)cc1NC(=O)c1cccc(NC(=O)Nc2cccc(C(=O)Nc3cc(C(=O)Nc4ccc(S(=O)(=O)O)c5cc(S(=O)(=O)O)cc(S(=O)(=O)O)c45)ccc3C)c2)c1", "inactive"),
    ("COC(=O)C[C@H]1C2(C)CC34OC5(C)O[C@@]6([C@H](OC(C)=O)C(OC(C)=O)[C@]7(C)C(/C(=C(/O)C(C)C)C(=O)O[C@H]7c7ccoc7)[C@@]6(O5)[C@H](OC(C)=O)[C@@]3(O)C2OC(=O)C(C)C)[C@]14C (some centres not stated)", "inactive"),
    ("CC[C@]1(O)CC2CN(CCc3c([nH]c4ccccc34)[C@@](C(=O)OC)(c3cc4c(cc3OC)N(C)[C@H]3[C@@](O)(C(=O)OC)[C@H](OC(C)=O)[C@]5(CC)C=CCN6CC[C@]43[C@@H]65)C2)C1 (some centres not stated)", "inactive"),
    ("COc1ccc(-c2coc3cc(O)ccc3c2=O)cc1", "inactive"),
    ("C[n+]1c2cc(N)ccc2cc2ccc(N)cc21", "active"),
    ("CC[C@@]1(O)C[C@H](O)c2c(cc3c(c2O)C(=O)c2c(O)ccc(O)c2C3=O)[C@H]1C(=O)OC", "inactive"),
    ("COC(=O)[C@@H]1OC(=O)C2OC23[C@@]1(C)CCC1[C@]2(C)C(C[C@H](O)[C@]13C)C(C)(C)[C@H](OC(C)=O)C[C@@H]2OC(C)=O (some centres not stated)", "inactive"),
    ("C/C=C(\\C)C(=O)O[C@H]1C[C@@H](OC(C)=O)[C@@]2(C(=O)OC)CO[C@@H]3C2[C@]12CO[C@](O)(C(=O)OC)[C@H]2[C@](C)(C12O[C@@]1(C)[C@H]1C[C@@H]2OC2OC=C[C@@]21O)[C@@H]3O (some centres not stated)", "inactive"),
]
